These measurements were taken from patent US9125913B2.

# key: entry, value: Selectivity Ratio (Platelet EC50/FL5.12/Bcl-2 EC50)
System: FL5.12/Bcl-2 cells
measurement-description: FL5.12/Bcl-2 cell viability assay
Format: cell-based, murine
run-conditions: ratio of canine platelet EC50 to FL5.12/Bcl-2 EC50
API doc: respond with a numeric literal and nothing else, no unit.

substance-smiles	measured-result
CN1CCC(Nc2ccc(S(=O)(=O)NC(=O)c3ccc(N4CCN(CC5=C(c6ccc(Cl)cc6)CC(C)(C)CC5)CC4)cc3Oc3cccc4[nH]ccc34)cc2[N+](=O)[O-])CC1	2305
CN1CCC(Nc2ccc(S(=O)(=O)NC(=O)c3ccc(N4CCN(CC5=C(c6ccc(Cl)cc6)CCCCC5)CC4)cc3Oc3ccc4[nH]ccc4c3)cc2[N+](=O)[O-])CC1	642
CN(C)CCOc1ccc(-c2ccc(Cl)cc2)c(CN2CCN(c3ccc(C(=O)NS(=O)(=O)c4ccc(NCCCN5CCCC5)c([N+](=O)[O-])c4)c(Oc4ccc5[nH]ccc5c4)c3)CC2)c1	108
CN(C)CCCNc1ccc(S(=O)(=O)NC(=O)c2ccc(N3CCN(CC4=C(c5ccc(Cl)cc5)CC(C)(C)CC4)CC3)cc2Oc2ccc3[nH]ccc3c2)cc1S(=O)(=O)C(F)(F)F	507

Which measured Selectivity Ratio (Platelet EC50/FL5.12/Bcl-2 EC50) value corresponds to `CC1(C)CCC(CN2CCN(c3ccc(C(=O)NS(=O)(=O)c4ccc(NCCCN5CCCC5)c([N+](=O)[O-])c4)c(Oc4ccc5[nH]ccc5c4)c3)CC2)=C(c2ccc(Cl)cc2)C1` ?
1052
